Recorded IC50 for the following molecules
# experimental_system: UniProtKB P28572
# Sequence (P28572 whole entry): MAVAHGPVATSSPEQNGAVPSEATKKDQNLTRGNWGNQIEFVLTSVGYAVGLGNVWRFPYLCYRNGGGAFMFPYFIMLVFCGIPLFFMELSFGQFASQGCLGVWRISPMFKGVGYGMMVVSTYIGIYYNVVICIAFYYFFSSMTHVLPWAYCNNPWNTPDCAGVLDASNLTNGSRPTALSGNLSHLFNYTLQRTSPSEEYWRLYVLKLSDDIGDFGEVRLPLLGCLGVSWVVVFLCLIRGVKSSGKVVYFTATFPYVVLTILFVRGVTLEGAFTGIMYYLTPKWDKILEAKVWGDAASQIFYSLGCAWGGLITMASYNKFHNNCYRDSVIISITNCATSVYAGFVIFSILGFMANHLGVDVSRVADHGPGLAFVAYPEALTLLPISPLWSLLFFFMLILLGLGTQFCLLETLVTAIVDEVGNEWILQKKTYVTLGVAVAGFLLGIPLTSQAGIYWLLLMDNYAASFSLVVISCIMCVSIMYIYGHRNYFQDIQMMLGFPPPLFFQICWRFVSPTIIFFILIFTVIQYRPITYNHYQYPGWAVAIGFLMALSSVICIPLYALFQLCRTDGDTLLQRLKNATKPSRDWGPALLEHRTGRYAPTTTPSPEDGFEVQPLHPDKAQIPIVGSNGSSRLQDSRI
# test: Inhibition of GlyT1 in primary rat cortical neurons assessed as reduction in [14C]glycine uptake after 2 hrs by microbeta scintillation counting method
Please respond with the number in nM and leave the unit unwritten.

Qu. Please look up its IC50: CS(=O)(=O)c1ccc(N2CCC(F)(F)CC2)c(C(=O)N2Cc3cn(-c4ccccc4F)nc3C2)c1
Ans. 12

Qu. Please look up its IC50: Cc1cc(-n2cc3c(n2)CN(C(=O)c2cc(S(C)(=O)=O)ccc2N2CCC(F)(F)CC2)C3)ccn1
Ans. 4

Qu. Please look up its IC50: Cc1cc(-n2cc3c(n2)CN(C(=O)c2cc(S(C)(=O)=O)ccc2O[C@@H](C)C(F)(F)F)C3)ccn1
Ans. 3

Qu. Please look up its IC50: CS(=O)(=O)c1ccc(-c2cccc(F)c2)c(C(=O)N2Cc3cn(-c4cncc(F)c4)nc3C2)c1
Ans. 10

Qu. Please look up its IC50: CCS(=O)(=O)c1ccc(O[C@@H](C)C(F)(F)F)c(C(=O)N2Cc3cn(-c4ccnc(C)c4)nc3C2)c1
Ans. 4

Qu. Please look up its IC50: Cc1cc(-n2cc3c(n2)CN(C(=O)c2cc(C#N)ccc2OCC2CC2)C3)ccn1
Ans. 690

Qu. Please look up its IC50: CS(=O)(=O)c1ccc(-c2cccc(F)c2)c(C(=O)N2Cc3cn(-c4ccccc4F)nc3C2)c1
Ans. 12

====

# experimental_system: Cytochrome P450 3A4 (Homo sapiens)
# Sequence (P08684 whole entry): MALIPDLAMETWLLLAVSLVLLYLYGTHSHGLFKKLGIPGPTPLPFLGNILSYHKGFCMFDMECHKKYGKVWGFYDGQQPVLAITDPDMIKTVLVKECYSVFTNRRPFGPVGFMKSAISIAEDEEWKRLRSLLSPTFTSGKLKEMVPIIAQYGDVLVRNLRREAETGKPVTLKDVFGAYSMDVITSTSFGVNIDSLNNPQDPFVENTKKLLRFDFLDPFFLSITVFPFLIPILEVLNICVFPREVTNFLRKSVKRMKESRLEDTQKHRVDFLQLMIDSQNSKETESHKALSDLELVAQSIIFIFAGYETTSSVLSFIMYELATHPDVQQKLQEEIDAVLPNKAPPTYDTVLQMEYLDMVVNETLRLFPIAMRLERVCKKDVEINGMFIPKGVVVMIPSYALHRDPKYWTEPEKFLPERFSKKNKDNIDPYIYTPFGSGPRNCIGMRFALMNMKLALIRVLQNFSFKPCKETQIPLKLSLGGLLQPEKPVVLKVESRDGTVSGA
pIC50: −log10 of the molar value.
measured_endpoint: pIC50

Illustrative cases are given below, each with its answer.
CCS(=O)(=O)c1ccc(O[C@@H](C)C(F)(F)F)c(C(=O)N2Cc3cn(-c4ccccc4F)nc3C2)c1: < 5.00
C[C@H](Oc1ccc(C#N)cc1C(=O)N1Cc2cn(-c3ccccc3F)nc2C1)C(F)(F)F: < 5.00

Please find the next compound below.
Qu. Please look up its pIC50: CS(=O)(=O)c1ccc(OCC2CC2)c(C(=O)N2Cc3cn(-c4ccccc4F)nc3C2)c1
Ans. < 5.00

====

# test: Drug uptake in Sprague-Dawley rat CSF at 10 mg/kg, po after 90 mins by LC-MS/MS analysis
# Assay type: ADME, organism-based, Cerebrospinal fluid
# assay_conditions: read-out: Drug uptake
measured_endpoint: concentration at […] (nM)
Please respond with the number in nM and leave the unit unwritten.

Qu. Please look up its concentration at […]: CS(=O)(=O)c1ccc(OCC2CC2)c(C(=O)N2Cc3cn(-c4ccccc4F)nc3C2)c1
Ans. 26

====

# Test system: Rattus norvegicus
# test: In vivo inhibition of GlyT1 in Sprague-Dawley rat assessed as CSF glycine levels at 10 mg/kg, po administered as single dose measured after 90 mins by LC-MS/MS analysis relative to control
# Type: functional
Recorded Activity for the following compounds
Please respond with the number in µM and leave the unit unwritten.

Illustrative cases are given below, each with its answer.
C[C@H](Oc1ccc(S(C)(=O)=O)cc1C(=O)N1Cc2cn(-c3ccccc3F)nc2C1)C(F)(F)F: 9.5
Cc1cc(-n2cc3c(n2)CN(C(=O)c2cc(C#N)ccc2OC(C)C)C3)ccn1: 11
CS(=O)(=O)c1ccc(OCC2CC2)c(C(=O)N2Cc3cn(-c4ccccc4F)nc3C2)c1: 7.6

Please find the next compound below.
Qu. Please look up its Activity: C[C@H](Oc1ccc(C#N)cc1C(=O)N1Cc2cn(-c3cncc(F)c3)nc2C1)C(F)(F)F
Ans. 7.2

====

Here we list molecules with their recorded pIC50 when tested on Cytochrome P450 2C9 (Homo sapiens).
Sequence (P11712 whole entry): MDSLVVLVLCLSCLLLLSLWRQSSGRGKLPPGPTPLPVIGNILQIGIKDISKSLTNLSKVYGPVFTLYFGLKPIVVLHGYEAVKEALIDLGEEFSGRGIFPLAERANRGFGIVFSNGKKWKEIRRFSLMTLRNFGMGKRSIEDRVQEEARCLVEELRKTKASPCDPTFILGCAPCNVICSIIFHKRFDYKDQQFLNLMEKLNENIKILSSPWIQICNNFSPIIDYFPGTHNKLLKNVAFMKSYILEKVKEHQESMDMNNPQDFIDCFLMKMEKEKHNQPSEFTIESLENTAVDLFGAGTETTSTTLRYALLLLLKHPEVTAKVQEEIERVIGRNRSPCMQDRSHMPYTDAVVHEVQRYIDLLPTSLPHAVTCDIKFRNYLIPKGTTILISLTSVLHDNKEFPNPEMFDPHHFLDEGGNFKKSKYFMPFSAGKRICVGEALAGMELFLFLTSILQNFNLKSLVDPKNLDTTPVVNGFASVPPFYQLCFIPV
pIC50: −log10 of the molar value.

Illustrative cases are given below, each with its answer.
CCS(=O)(=O)c1ccc(O[C@@H](C)C(F)(F)F)c(C(=O)N2Cc3cn(-c4ccccc4F)nc3C2)c1: < 5.00
CCS(=O)(=O)c1ccc(O[C@@H](C)C(F)(F)F)c(C(=O)N2Cc3cn(-c4cncc(F)c4)nc3C2)c1: < 5.00

Please find the next molecule below.
Qu. Missing value: pIC50, Cytochrome P450 2C9 (Homo sapiens), entry CC(C)S(=O)(=O)c1ccc(O[C@@H](C)C(F)(F)F)c(C(=O)N2Cc3cn(-c4ccccc4)nc3C2)c1 . Fill in?
Ans. < 5.00

====

# test: Efflux ratio of apparent permeability from basolateral to apical over apical to basolateral side in MDCK-MDR1 cells at 5 uM after 60 mins by LC-MS/MS analysis
# assay_conditions: dog
Binary label based on efflux ratio at 1 h, 5 µM with cut-off 2: below gives rule met, not below gives rule not met.

Use the examples below as a reference point.
C[C@H](Oc1ccc(C#N)cc1C(=O)N1Cc2cn(-c3ccccc3F)nc2C1)C(F)(F)F: rule met
CCS(=O)(=O)c1ccc(O[C@@H](C)C(F)(F)F)c(C(=O)N2Cc3cn(-c4cncc(F)c4)nc3C2)c1: rule not met
CS(=O)(=O)c1ccc(OCC2CC2)c(C(=O)N2Cc3cn(-c4ccccc4F)nc3C2)c1: rule not met
CC(C)S(=O)(=O)c1ccc(O[C@@H](C)C(F)(F)F)c(C(=O)N2Cc3cn(-c4ccccc4)nc3C2)c1: rule not met

Qu. Record CCS(=O)(=O)c1ccc(O[C@@H](C)C(F)(F)F)c(C(=O)N2Cc3cn(-c4ccccc4F)nc3C2)c1 : is its efflux ratio at 1 h, 5 µM strictly below 2?
Ans. rule not met

====

# test: Apparent permeability from basolateral to apical side in MDCK-MDR1 cells monolayer at 5 uM after 60 mins by LC-MS/MS analysis
# assay_conditions: dog
measured_endpoint: Papp B→A at 1 h, 5 µM (×10⁻⁶ cm/s)
Please respond with the number in ×10⁻⁶ cm/s and leave the unit unwritten.

Illustrative cases are given below, each with its answer.
CS(=O)(=O)c1ccc(OCC2CC2)c(C(=O)N2Cc3cn(-c4ccccc4F)nc3C2)c1: 58.9
CCS(=O)(=O)c1ccc(O[C@@H](C)C(F)(F)F)c(C(=O)N2Cc3cn(-c4cncc(F)c4)nc3C2)c1: 99
CC(C)S(=O)(=O)c1ccc(O[C@@H](C)C(F)(F)F)c(C(=O)N2Cc3cn(-c4ccccc4)nc3C2)c1: 123
CCS(=O)(=O)c1ccc(O[C@@H](C)C(F)(F)F)c(C(=O)N2Cc3cn(-c4ccccc4F)nc3C2)c1: 51.9
C[C@H](Oc1ccc(C#N)cc1C(=O)N1Cc2cn(-c3ccccc3F)nc2C1)C(F)(F)F: 61.7

Please find the next compound below.
Qu. Please look up its Papp B→A at 1 h, 5 µM: Cc1cc(-n2cc3c(n2)CN(C(=O)c2cc(C#N)ccc2OCC2CC2)C3)ccn1
Ans. 51.6

====

# experimental_system: UniProt:P48067
# Sequence (P48067 whole entry): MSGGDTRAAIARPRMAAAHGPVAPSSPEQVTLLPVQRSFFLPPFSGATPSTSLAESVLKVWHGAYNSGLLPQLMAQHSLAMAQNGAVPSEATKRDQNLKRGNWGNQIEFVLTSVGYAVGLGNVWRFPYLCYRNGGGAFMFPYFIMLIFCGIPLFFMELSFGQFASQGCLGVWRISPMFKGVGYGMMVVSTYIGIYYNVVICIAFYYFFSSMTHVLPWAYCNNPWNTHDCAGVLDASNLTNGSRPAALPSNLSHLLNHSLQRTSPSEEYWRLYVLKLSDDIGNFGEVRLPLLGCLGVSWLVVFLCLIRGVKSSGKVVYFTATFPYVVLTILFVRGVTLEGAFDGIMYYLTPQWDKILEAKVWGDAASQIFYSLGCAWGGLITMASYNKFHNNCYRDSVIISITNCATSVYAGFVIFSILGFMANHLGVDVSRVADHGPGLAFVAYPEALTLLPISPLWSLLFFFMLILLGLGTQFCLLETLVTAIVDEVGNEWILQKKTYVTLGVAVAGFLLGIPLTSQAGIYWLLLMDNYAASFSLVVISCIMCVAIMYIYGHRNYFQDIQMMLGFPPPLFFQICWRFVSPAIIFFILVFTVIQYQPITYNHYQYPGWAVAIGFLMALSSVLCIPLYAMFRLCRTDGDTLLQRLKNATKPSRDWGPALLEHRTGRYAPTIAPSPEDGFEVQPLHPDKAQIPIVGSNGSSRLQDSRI
# test: Inhibition of recombinant human GlyT1c expressed in HEK293 cells assessed as reduction in [14C]glycine uptake after 2 hrs by microbeta scintillation counting method
Recorded pIC50 for the following molecules
Scale for pIC50: -log10 of concentration given in mol/L; no unit attached.

Illustrative cases are given below, each with its answer.
Cc1cc(-n2cc3c(n2)CN(C(=O)c2cc(S(C)(=O)=O)ccc2N2CCC(F)(F)CC2)C3)ccn1: 8.15
C[C@H](Oc1ccc(C#N)cc1C(=O)N1Cc2cn(-c3ccccc3F)nc2C1)C(F)(F)F: 7.11
CS(=O)(=O)c1ccc(OCC2CC2)c(C(=O)N2Cc3cn(-c4ccccc4F)nc3C2)c1: 7.42

Please find the next molecule below.
Qu. Please look up its pIC50: CC(C)Oc1ccc(C#N)cc1C(=O)N1Cc2cn(-c3ccccc3)nc2C1
Ans. 6.98

====

# test: Intrinsic clearance in rat liver microsomes at 1 uM assessed per mg protein at 37 degC up to 30 mins in presence of NADPH by HPLC-MS analysis
# Type: ADME, microsome
# assay_conditions: read-out: CLH
measured_endpoint: microsomal CLint at 1 µM (µL/min/mg)
Please respond with the number in µL/min/mg and leave the unit unwritten.

Qu. Please look up its microsomal CLint at 1 µM: C[C@H](Oc1ccc(C#N)cc1C(=O)N1Cc2cn(-c3ccccc3F)nc2C1)C(F)(F)F
Ans. 451

Qu. Please look up its microsomal CLint at 1 µM: CS(=O)(=O)c1ccc(OCC2CC2)c(C(=O)N2Cc3cn(-c4ccccc4F)nc3C2)c1
Ans. 5.3

Qu. Please look up its microsomal CLint at 1 µM: Cc1cc(-n2cc3c(n2)CN(C(=O)c2cc(C#N)ccc2OCC2CC2)C3)ccn1
Ans. 7

Qu. Please look up its microsomal CLint at 1 µM: CC(C)S(=O)(=O)c1ccc(O[C@@H](C)C(F)(F)F)c(C(=O)N2Cc3cn(-c4ccccc4)nc3C2)c1
Ans. 1.8

Qu. Please look up its microsomal CLint at 1 µM: CCS(=O)(=O)c1ccc(O[C@@H](C)C(F)(F)F)c(C(=O)N2Cc3cn(-c4cncc(F)c4)nc3C2)c1
Ans. 5.4
